Please go through the items and note down their Potency.
assay: qHTS Assay for Modulators of miRNAs and/or Inhibitors of miR-21; conditions: HeLa miR-21-FLuc reporter, luciferase luminescence, 48 h; actives lower the signal; note: potency is the fitted concentration of half-maximal effect; nearly all actives have a fitted effect of over 55% in size
In all, about 340,000 compounds went through this assay and about 3,300 (0.97%) were called active. About 9% were inconclusive and are not listed. The list shows a part of the results.

Solved cases below.
>>> reported_result("COc1ccc2oc(-c3ccc(C)c(NC(=O)c4ccc5c(c4)OCCO5)c3)nc2c1")
"8.26 µM (active)"
>>> reported_result("O=C(NCCN1CCOCC1)c1cc(-c2ccccc2)on1")
"18.5 µM (active)"
>>> reported_result("CCCC(=O)N1c2ccc(-c3csc(N)n3)cc2CC1C (centres undefined)")
"1.85 µM (active)"

Would you kindly look at the next entry?
Form field Potency, entry CC1CCN(C(=O)Cn2nnc(-c3cccs3)n2)CC1 : 7.36 µM (active)

###

assay: qHTS Assay for Modulators of miRNAs and/or Inhibitors of miR-21; conditions: HeLa miR-21-FLuc reporter, luciferase luminescence, 48 h; actives lower the signal; note: potency is the fitted concentration of half-maximal effect; nearly all actives have a fitted effect of over 55% in size
The whole screen tested about 340,000 compounds, of which about 3,300 (0.97%) were called active. Inconclusive results (about 9%) are left out. This is one part of the list.
MEASURED PARAMETER: Potency

Solved cases below.
>>> reported_result("COc1ccc2nc3sc(C(=O)NCc4cccs4)c(N)c3cc2c1")
"1.31 µM (active)"
>>> reported_result("Fc1ccccc1CSc1nnc(-c2cccs2)o1")
"3.29 µM (active)"
>>> reported_result("O=C(c1cc(COc2ccc(F)cc2Cl)on1)N1CCCCCC1")
"4.14 µM (active)"
>>> reported_result("Cc1ccccc1/C(N)=N/OC(=O)/C=C/c1ccccc1")
"5.21 µM (active)"
>>> reported_result("O=C(Nc1sc2c(c1C(=O)NCc1ccco1)CCCC2)c1cc(=O)c2ccccc2o1")
"5.85 µM (active)"
>>> reported_result("O=C(COc1ccc(F)cc1Br)NCc1ccccn1")
"14.7 µM (active)"

Fill in Potency for each of the 2 compounds listed.
1. Cc1cccc(C(=O)Nc2ccc3c(c2)ncn3C)c1
2. CC(C)(C)c1ccc(/C=C/C(=O)Nc2nncs2)cc1

1.47 µM (active)
0.369 µM (active)

###

test: qHTS Assay for Modulators of miRNAs and/or Inhibitors of miR-21; conditions: HeLa miR-21-FLuc reporter, luciferase luminescence, 48 h; actives lower the signal; note: potency is the fitted concentration of half-maximal effect; nearly all actives have a fitted effect of over 55% in size
The campaign covered roughly 340,000 compounds. About 3,300 (0.97%) were called active. Inconclusive results (about 9%) are left out. This is one part of the list.
Please go through the items and note down their Potency.

Solved cases below.
>>> reported_result("CCCCCNc1nc(-c2ccccc2)cs1")
"1.65 µM (active)"
>>> reported_result("COc1ccc(OCCOc2ccccc2[N+](=O)[O-])cc1")
"6.56 µM (active)"

Fill in Potency for each of the 5 compounds listed.
1. CCN1CCN(c2ncnc3c2cnn3-c2ccc(C)c(C)c2)CC1
2. COc1cccc(OCc2cc(C(=O)NCc3ccccn3)no2)c1
3. Cc1cc(N/N=C/c2ccccc2Br)nc2ccccc12
4. CSc1ccccc1OCc1cc(C(=O)NCc2cccc(C)n2)no1
5. Oc1ccc(-c2csc(Nc3ncccn3)n2)cc1O

["1.65 µM (active)", "13.1 µM (active)", "13.1 µM (active)", "7.36 µM (active)", "5.85 µM (active)"]
